Examples of molecules with documented pIC50 follow.
Test system: wild-type CCRF CEM cells
Assay: IC50 in sensitive wild-type CCRF CEM leukemia cells
Assay type: cell-based, human
pIC50: −log10 of the molar value.
measured-metric: pIC50

molecule="COc1ccc2c(c1)CN1C(=S)N(C(C)c3ccccc3)C(=O)C1=N2 (stereo not drawn)" measurement=5.81
molecule="CC(c1ccccc1)N1C(=O)C2=Nc3ccc(Cl)cc3CN2C1=S (stereo not drawn)" measurement=6.43
molecule=O=C1C2=Nc3ccccc3CN2C(=S)N1c1ccc([N+](=O)[O-])cc1 measurement=4.56
molecule=COc1cccc(N2C(=O)C3=Nc4ccccc4CN3C2=S)c1 measurement=4.55
molecule="CC(c1ccccc1)N1C(=O)C2=Nc3cccc(Cl)c3CN2C1=S (stereo not drawn)" measurement=6.90
molecule=CC(C)c1cccc(C(C)C)c1N1C(=O)C2=Nc3ccccc3CN2C1=S measurement=4.60
molecule="CC(c1ccccc1)N1C(=O)C2=Nc3ccc(Br)cc3CN2C1=S (stereo not drawn)" measurement=6.32
molecule="CC(c1ccccc1)N1C(=O)C2=Nc3cc(Cl)ccc3CN2C1=S (stereo not drawn)" measurement=6.64
molecule=C[C@H](c1ccccc1)N1C(=O)C2=Nc3cc([N+](=O)[O-])ccc3CN2C1=S measurement=6.85
